Assay: qHTS Assay for Enhancers of SMN2 Splice Variant Expression; further: nearly all actives have a fitted effect of over 55% in size; further: potency means the concentration at half of the fitted maximal effect
Details: HEK293 SMN2-luciferase splicing reporter, luminescence, 30-36 h; series mostly up to 46.1 µM
About 5,900 (2.8%) of roughly 210,000 compounds were called active. Roughly 5% stayed inconclusive and do not appear here. The sample holds actives, similar compounds and a random draw of the others, so the mix is not that of the screen.
property: Potency

These solved cases illustrate the format of a correct answer.
CCS(=O)(=O)c1ccc2oc(SCC(=O)N3c4ccccc4CC3C)nc2c1 (centres undefined): inactive
COC(=O)c1cc(NC(=O)CC2C(=O)NCCN2C(=O)c2ccc(F)cc2)cc(C(=O)OC)c1 (centres undefined): 10 µM (active)
O=[N+]([O-])c1ccccc1NCc1ccccc1Cl: inactive
CCNC(=O)N1CCNC(=O)C1CC(=O)Nc1ccc(C(=O)OCC)cc1 (centres undefined): inactive
COc1ccccc1CNc1nc2ccc(Cl)cc2n2cnnc12: inactive

Next compound, please.
Could you tell me which Potency is on file for Cc1cc(Nc2ccccc2)n(CCC#N)n1 ?
inactive

* * *

Experiment: qHTS Assay for Enhancers of SMN2 Splice Variant Expression; further: nearly all actives have a fitted effect of over 55% in size; further: potency means the concentration at half of the fitted maximal effect
Details: HEK293 SMN2-luciferase splicing reporter, luminescence, 30-36 h; series mostly up to 46.1 µM
The campaign covered roughly 210,000 compounds. About 5,900 (2.8%) were called active. About 5% were inconclusive and are not listed. Many of the other results were omitted from the sample, so actives are more common in it than they were.
property: Potency

COCc1nnc(NC(=O)c2ccc3c(c2)OCO3)s1: 14.1 µM (active)
CC(C)CNC(=S)Nc1ccc(F)cc1: inactive
CC(C)CNC(=O)C(=O)Nc1ccc(N(C)C)cc1: 11.2 µM (active)
Cc1ccc(F)cc1NC(=O)c1ccc2c(c1)OCO2: inactive
Cc1cc(C)c(C#N)c(SCC(=O)Nc2ccccc2)n1: 12.6 µM (active)

Could you tell me which Potency is on file for Cc1nn(-c2nc(-c3ccccc3)cc(C(F)(F)F)n2)c(C)c1Cl ?
inactive

Could you tell me which Potency is on file for c1ccc(CCc2nc(-c3ccncc3)no2)cc1 ?
inactive

Could you tell me which Potency is on file for Nc1nonc1C(=O)NCCc1ccccc1 ?
inactive

* * *

Assay: qHTS Assay for Enhancers of SMN2 Splice Variant Expression; further: nearly all actives have a fitted effect of over 55% in size
Conditions: HEK293 SMN2-luciferase splicing reporter, luminescence, 30-36 h; series mostly up to 46.1 µM
The campaign covered roughly 210,000 compounds. About 5,900 (2.8%) were called active. About 5% were inconclusive and are not listed. Calls come from the whole dose curve; as a rule, active = well fitted activation curve with a large enough effect; inconclusive = small, poorly fitted or top-dose-only effect; inactive = no such curve, though single readings can be large or run the other way. The full list was thinned out, with actives kept by preference.
Hello, when you answer, please use one of the following outcomes: class 1 for active, class 0 for inactive

Which outcome was assigned to CCc1ccc(NC2Nc3cc(C)nn3S2)cc1 (stereo not given) in this test?
class 1

Which outcome was assigned to COc1cc(NC(=O)CN(C)S(=O)(=O)c2ccc3nc(C)sc3c2)cc(OC)c1 in this test?
class 0

Which outcome was assigned to Cc1cccc(OCC(O)Cn2c(=N)n(CCN3CCOCC3)c3ccccc32)c1 (stereo not given) in this test?
class 0

Which outcome was assigned to Cn1c(=O)n(Cc2ccco2)c(=N)c2c3c(sc21)CCCC3 in this test?
class 0

Which outcome was assigned to COc1ccc(-c2nn3c(-c4ccccc4)nnc3s2)cc1OC in this test?
class 0

* * *

Test: qHTS Assay for Enhancers of SMN2 Splice Variant Expression; further: nearly all actives have a fitted effect of over 55% in size
Conditions: HEK293 SMN2-luciferase splicing reporter, luminescence, 30-36 h; series mostly up to 46.1 µM
Screen size: about 210,000 compounds; about 5,900 (2.8%) were called active. Another 5% or so got no clear call; they are omitted. Calls follow the shape of the dose curve; as a rule, active = well fitted activation curve with a large enough effect; inconclusive = small, poorly fitted or top-dose-only effect; inactive = no such curve, though single readings can be large or run the other way. The sample holds actives, similar compounds and a random draw of the others, so the mix is not that of the screen.
Hello, when you answer, please use one of the following outcomes: YES (active), NO (inactive)

Which outcome was assigned to Cc1cccc(N(CC(=O)N=Nc2c(O)[nH]c3ccccc23)S(C)(=O)=O)c1C in this test?
NO

Which outcome was assigned to Cc1c(-c2ccccc2)n[nH]c1C(=O)N=Nc1c(O)[nH]c2ccccc12 in this test?
YES

Which outcome was assigned to Cc1nc(-c2ccc(NC(=O)c3cccs3)cc2)cs1 in this test?
YES

Which outcome was assigned to COc1cccc(-c2nc3n(n2)C(c2ccccc2Cl)C(C(N)=O)=C(C)N3)c1 (stereo not drawn) in this test?
YES

Which outcome was assigned to O=C(NCc1ccc(F)cc1)c1ccc2nc(N3CCCCC3)sc2c1 in this test?
YES

Which outcome was assigned to O=C(c1cc(-c2cccs2)on1)N1CCCCC1 in this test?
YES

Which outcome was assigned to COc1ccc(Cl)cc1NC(=O)c1sc2nc3c(cc2c1N)CN(C)CC3 in this test?
NO

Which outcome was assigned to Cc1ccc(-c2csc(NC(=O)Cc3cccs3)n2)cc1C in this test?
NO

Which outcome was assigned to COc1cccc(NC(=O)CC2C(=O)NCCN2C(=S)Nc2ccc(F)cc2)c1 (stereo not drawn) in this test?
NO

Which outcome was assigned to O=C(Nc1nnc(CCc2ccccc2)s1)C1CCCO1 (stereo not drawn) in this test?
NO

Which outcome was assigned to CCCCN(C)CCNC(=O)C1CCCN(S(=O)(=O)c2cccc3nsnc23)C1 (stereo not drawn) in this test?
NO

Which outcome was assigned to O=C(c1ccc(F)cc1)N1CCCC(c2nc(-c3cccs3)no2)C1 (stereo not drawn) in this test?
NO

Which outcome was assigned to COc1ccccc1-c1cc(C(=O)N2CCCCC2)no1 in this test?
YES

Which outcome was assigned to COc1ccccc1C(=O)Nc1c(C(=O)N(C)Cc2ccccc2)sc2nc(C)c(Cl)c(C)c12 in this test?
NO

Which outcome was assigned to CCNC(=O)Cn1nc(C)n2c(cc3c(OC)cccc32)c1=O in this test?
NO

Which outcome was assigned to COc1ccc(CC(=O)c2ccc(O)cc2O)cc1OC in this test?
NO

Which outcome was assigned to CN(CC(=O)Nc1cccc(C(F)(F)F)c1)S(=O)(=O)c1cccs1 in this test?
NO

Which outcome was assigned to COc1ccc(-n2ncc3c(N4CCCc5ccccc54)ncnc32)cc1 in this test?
NO
